assayedTarget: Recombinant human his-tagged IGF R extracellular domain protein (human) (UniProt P08069)
assayName: SPR, Ab captured via anti-huIgG Fc, dissociation at pH 6
Measured koff of individual entries
The figure you give is taken to be in s⁻¹; do not add the unit.

# annotated cases, reported koff shown
VRDN-02036 (antibody, V domains shown) VH: QVQLQESGPGLVKPSETLSLTCTVSGYSITGGYLWNWIRQPPGKGLEWIGYISYDGTNNYKPSLKDRVTISRDTSKNQFSLKLSSVTAADTAVYYCARYGRVFFDYWGQGTLVTVSS VL: DIVMTQSPLSLPVTPGEPASISCRSSQSIVHHNGNTYLQWYLQKPGQSPQLLIYKVSNRLYGVPDRFSGSGSGTDFTLKISRVEAEDVGVYYCFQGSHVPWTFGQGTKVEIK :: 0.000102
VRDN-02043 (antibody, V domains shown) VH: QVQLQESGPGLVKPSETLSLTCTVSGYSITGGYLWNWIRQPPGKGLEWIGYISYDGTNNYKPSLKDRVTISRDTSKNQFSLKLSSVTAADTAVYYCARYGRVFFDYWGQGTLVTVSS VL: DIVMTQSPLSLPVTPGEPASISCRSSQSIVHSNGNTYLHWYLQKPGQSPQLLIYKVSNRLYGVPDRFSGSGSGTDFTLKISRVEAEDVGVYYCFQGSHVPWTFGQGTKVEIK :: 9.08e-05
VRDN-02052 (antibody, V domains shown) VH: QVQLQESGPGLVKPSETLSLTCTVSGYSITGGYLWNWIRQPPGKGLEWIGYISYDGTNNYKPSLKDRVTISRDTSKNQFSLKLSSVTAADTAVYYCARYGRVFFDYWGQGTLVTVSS VL: DIVMTQSPLSLPVTPGEPASISCRSSQSIVHSNGNTYLQWYLQKPGQSPQLLIYKVSNRLYGVPDRFSGSGSGTDFTLKISRVEAEDVGVYYCFHGSHVPWTFGQGTKVEIK :: 0.000156
VRDN-02001 (antibody, V domains shown) VH: QVQLQESGPGLVKPSETLSLTCTVSHYSITGGYLWNWIRQPPGKGLEWIGYISYDGTNNYKPSLKDRVTISRDTSKNQFSLKLSSVTAADTAVYYCARYGRVFFDYWGQGTLVTVSS VL: DIVMTQSPLSLPVTPGEPASISCRSSQSIVHSNGNTYLQWYLQKPGQSPQLLIYKVSNRLYGVPDRFSGSGSGTDFTLKISRVEAEDVGVYYCFQGSHVPWTFGQGTKVEIK :: 0.000115
VRDN-02057 (antibody, V domains shown) VH: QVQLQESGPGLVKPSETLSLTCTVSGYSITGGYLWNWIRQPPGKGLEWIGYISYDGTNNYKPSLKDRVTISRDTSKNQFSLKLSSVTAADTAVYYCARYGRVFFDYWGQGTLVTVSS VL: DIVMTQSPLSLPVTPGEPASISCRSSQSIVHSNGNTYLQWYLQKPGQSPQLLIYKVSNRLYGVPDRFSGSGSGTDFTLKISRVEAEDVGVYYCFQGSHVPHTFGQGTKVEIK :: 0.000165
VRDN-02073 (antibody, V domains shown) VH: QVQLQESGPGLVKPSETLSLTCTVSGYSITGGYLWNWIRQPPGKGLEWIGYIHYDGTNNYKPSLKDRVTISRDTSKNQFSLKLSSVTAADTAVYYCARHGRVFFDYWGQGTLVTVSS VL: DIVMTQSPLSLPVTPGEPASISCRSHQSIVHSNGNTYLQWYLQKPGQSPQLLIYKVSNRLYGVPDRFSGSGSGTDFTLKISRVEAEDVGVYYCFQGSHVPHTFGQGTKVEIK :: 4.77e-05
VRDN-02069 (antibody, V domains shown) VH: QVQLQESGPGLVKPSETLSLTCTVSGYSITGGYLWNWIRQPPGKGLEWIGYISYHGTNNYKPSLKDRVTISRDTSKNQFSLKLSSVTAADTAVYYCARYGRVFFDYWGQGTLVTVSS VL: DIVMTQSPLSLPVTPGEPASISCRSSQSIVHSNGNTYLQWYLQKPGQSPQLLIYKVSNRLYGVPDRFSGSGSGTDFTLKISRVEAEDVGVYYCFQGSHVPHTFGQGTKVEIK :: 5.59e-05
VRDN-02007 (antibody, V domains shown) VH: QVQLQESGPGLVKPSETLSLTCTVSGYSITGHYLWNWIRQPPGKGLEWIGYISYDGTNNYKPSLKDRVTISRDTSKNQFSLKLSSVTAADTAVYYCARYGRVFFDYWGQGTLVTVSS VL: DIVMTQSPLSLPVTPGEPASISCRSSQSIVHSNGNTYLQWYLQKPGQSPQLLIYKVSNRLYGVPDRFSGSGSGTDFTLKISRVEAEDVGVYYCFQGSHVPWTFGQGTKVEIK :: 0.00188
VRDN-02046 (antibody, V domains shown) VH: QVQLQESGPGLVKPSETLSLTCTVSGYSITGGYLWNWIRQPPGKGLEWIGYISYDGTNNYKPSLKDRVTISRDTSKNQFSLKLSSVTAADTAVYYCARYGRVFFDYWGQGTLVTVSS VL: DIVMTQSPLSLPVTPGEPASISCRSSQSIVHSNGNTYLQWYLQKPGQSPQLLIYKVHNRLYGVPDRFSGSGSGTDFTLKISRVEAEDVGVYYCFQGSHVPWTFGQGTKVEIK :: 0.000103

Name the recorded koff of the binder listed here: VRDN-02065 (antibody, V domains shown) VH: QVQLQESGPGLVKPSETLSLTCTVSGYSITGGYLWNWIRQPPGKGLEWIGYIHYDGTNNYKPSLKDRVTISRDTSKNQFSLKLSSVTAADTAVYYCARYGRVFFDYWGQGTLVTVSS VL: DIVMTQSPLSLPVTPGEPASISCRSSQSIVHSNGNTYLQWYLQKPGQSPQLLIYKVSNRLYGVPDRFSGSGSGTDFTLKISRVEAEDVGVYYCFQGSHVHWTFGQGTKVEIK 4.83e-05
